Target: human norepinephrine transporter (hNET) (Homo sapiens)
Counter-ions that a name gives are not always drawn.
Note to self: Ki under 30 nM means YES, ties and anything higher get NO.

Please determine if Fc1ccc(-n2nc(OC[C@H]3CCCNC3)c3ccccc32)cc1F [Example 33, hydrochloride] is below 30 nM in terms of Ki. YES

* * *

Molecular target: human norepinephrine transporter (hNET) (Homo sapiens, UniProt P23975)
Sequence (P23975 whole entry): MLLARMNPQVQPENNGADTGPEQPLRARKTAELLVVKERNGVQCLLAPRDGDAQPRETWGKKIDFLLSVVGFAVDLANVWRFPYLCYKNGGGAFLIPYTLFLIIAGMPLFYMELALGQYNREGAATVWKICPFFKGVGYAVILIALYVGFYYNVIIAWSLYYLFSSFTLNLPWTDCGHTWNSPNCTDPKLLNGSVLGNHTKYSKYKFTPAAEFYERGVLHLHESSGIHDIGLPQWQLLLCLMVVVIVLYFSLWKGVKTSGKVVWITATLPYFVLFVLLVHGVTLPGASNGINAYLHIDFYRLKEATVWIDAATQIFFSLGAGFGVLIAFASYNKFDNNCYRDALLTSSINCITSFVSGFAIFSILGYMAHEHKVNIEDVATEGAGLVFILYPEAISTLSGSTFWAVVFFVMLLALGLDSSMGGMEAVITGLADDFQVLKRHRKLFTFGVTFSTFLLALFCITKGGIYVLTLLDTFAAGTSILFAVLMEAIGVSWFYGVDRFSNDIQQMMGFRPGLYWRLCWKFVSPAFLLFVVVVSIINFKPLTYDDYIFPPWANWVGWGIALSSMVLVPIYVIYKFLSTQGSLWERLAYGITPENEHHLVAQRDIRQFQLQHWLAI
pKi: −log10 of the molar value. Where a name gives a salt, the structure may show the parent alone.
Label label 1 for high-side pKi (at or above 8) and label 0 for low-side pKi (below it).

Example cases with answers are listed next.
>>> class_assignment("Fc1ccc(F)c(-n2nc(OC[C@@H]3CCNC3)c3ccccc32)c1 [Example 30, hydrochloride]")
"label 1"
>>> class_assignment("c1ccc(-n2nc(OC3CCCNC3)c3ccccc32)cc1 (racemic) [Example 15, hydrochloride]")
"label 0"
>>> class_assignment("Fc1cccc(-n2nc(OC3CCNCC3)c3c(F)cccc32)c1 [Example 81, hydrochloride]")
"label 0"
>>> class_assignment("Fc1ccc2c(c1)c(OC[C@@H]1CCCNC1)nn2-c1ccccc1F [Example 55, maleate]")
"label 0"
>>> class_assignment("Clc1ccc(-n2nc(OC3CCNCC3)c3ccccc32)cc1 [Example 41, hydrochloride]")
"label 0"
>>> class_assignment("Fc1ccc2c(c1)c(OC[C@@H]1CNCCO1)nn2-c1ccccc1F [Example 46, maleate]")
"label 1"
>>> class_assignment("Fc1ccc2c(c1)c(OC[C@@H]1CNCCO1)nn2-c1c(F)cccc1F [Example 50, hydrochloride]")
"label 1"
>>> class_assignment("Fc1ccccc1-n1nc(OC2CCNCC2)c2c(F)cccc21 [Example 100, hydrochloride]")
"label 1"
>>> class_assignment("c1ccc(-n2nc(OC[C@H]3CCCNC3)c3cccnc32)cc1 [Example 104, hydrochloride]")
"label 0"
>>> class_assignment("c1ccc(-n2nc(OC[C@H]3CCCNC3)c3ccccc32)cc1 [Example 19, hydrochloride]")
"label 1"

Does the compound Fc1ccccc1-n1nc(OC2CCNCC2)c2ccccc21 [Example 1, hydrochloride] have recorded pKi that is 8 or more? label 1

Does the compound Clc1cccc2c(OC3CCNCC3)nn(-c3ccccc3)c12 [Example 61, hydrochloride] have recorded pKi that is 8 or more? label 0

Does the compound Fc1ccccc1-n1nc(OC[C@@H]2CNCCO2)c2c(F)cccc21 [Example 98, maleate] have recorded pKi that is 8 or more? label 0
